Each entry below carries its recorded Dmax.
Molecular target: androgen receptor (AR) (Homo sapiens, UniProt P10275)
Sequence (P10275 1-920): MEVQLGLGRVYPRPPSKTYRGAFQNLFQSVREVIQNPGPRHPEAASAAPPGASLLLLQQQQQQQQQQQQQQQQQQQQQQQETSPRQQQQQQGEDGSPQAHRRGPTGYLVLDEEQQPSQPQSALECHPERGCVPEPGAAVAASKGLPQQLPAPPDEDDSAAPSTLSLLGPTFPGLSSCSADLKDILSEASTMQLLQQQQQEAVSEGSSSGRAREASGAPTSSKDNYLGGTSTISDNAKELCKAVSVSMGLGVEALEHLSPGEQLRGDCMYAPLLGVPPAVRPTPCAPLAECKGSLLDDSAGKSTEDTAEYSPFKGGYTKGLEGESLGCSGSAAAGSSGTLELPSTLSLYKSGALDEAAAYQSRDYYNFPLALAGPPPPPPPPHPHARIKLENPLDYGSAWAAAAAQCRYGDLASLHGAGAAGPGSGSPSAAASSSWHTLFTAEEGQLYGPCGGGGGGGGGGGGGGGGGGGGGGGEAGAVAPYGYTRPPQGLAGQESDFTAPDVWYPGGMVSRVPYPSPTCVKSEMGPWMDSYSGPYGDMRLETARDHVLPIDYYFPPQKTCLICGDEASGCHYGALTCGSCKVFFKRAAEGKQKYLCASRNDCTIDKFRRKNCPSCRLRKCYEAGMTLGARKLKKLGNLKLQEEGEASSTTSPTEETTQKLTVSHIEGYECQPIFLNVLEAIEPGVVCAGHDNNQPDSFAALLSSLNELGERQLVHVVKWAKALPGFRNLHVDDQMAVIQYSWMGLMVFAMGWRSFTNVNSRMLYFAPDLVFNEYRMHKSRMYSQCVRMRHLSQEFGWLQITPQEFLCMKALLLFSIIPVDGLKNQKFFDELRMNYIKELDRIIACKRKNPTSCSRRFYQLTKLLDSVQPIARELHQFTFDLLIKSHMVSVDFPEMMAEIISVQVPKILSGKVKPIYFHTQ
Assay: Degradation of androgen receptor (AR) protein in VCaP cells by ELISA
Type: cell-based
Details: VCaP

compound	Dmax
N#Cc1ccc(O[C@H]2CC[C@H](NC(=O)c3cnn([C@H]4CC[C@H](CN5CCC6(CC5)CN(c5ccc7c(c5)C(=O)N(C5CCC(=O)NC5=O)C7=O)C6)CC4)c3)CC2)cc1Cl (stereo partly shown)	60 to 80%
CN(C1CCN(c2ccc(C(=O)N[C@H]3CC[C@H](Oc4ccc(C#N)c(Cl)c4)CC3)nn2)CC1)C1CCN(c2cc3c(cc2F)C(=O)N(C2CCC(=O)NC2=O)C3=O)CC1 (stereo partly shown)	> 80%
N#Cc1ccc(O[C@H]2CC[C@H](NC(=O)c3nc(N4CCC(CN5CCC6(CC5)CN(c5ccc7c(c5)C(=O)N(C5CCC(=O)NC5=O)C7=O)C6)CC4)no3)CC2)cc1Cl (stereo partly shown)	> 80%
N#Cc1ccc(O[C@H]2CC[C@H](NC(=O)c3noc(N4CCC(CN5CCC6(CC5)CN(c5ccc7c(c5)C(=O)N(C5CCC(=O)NC5=O)C7=O)C6)CC4)n3)CC2)cc1Cl (stereo partly shown)	> 80%
N#Cc1ccc(O[C@H]2CC[C@H](NC(=O)c3nnc(N4CCC(CN5CCC6(CC5)CN(c5cc7c(cc5F)C(=O)N(C5CCC(=O)NC5=O)C7=O)C6)CC4)s3)CC2)cc1Cl (stereo partly shown)	> 80%
N#Cc1ccc(O[C@H]2CC[C@H](NC(=O)c3ccc(N4CC5(CCN(C6CCN(c7cc8c(cc7F)C(=O)N(C7CCC(=O)NC7=O)C8=O)CC6)CC5)C4)nn3)CC2)cc1Cl (stereo partly shown)	> 80%
N#Cc1ccc(O[C@H]2CC[C@H](NC(=O)c3ncc(N4CC5(CCN(CC6CCN(c7cc8c(cc7F)C(=O)N(C7CCC(=O)NC7=O)C8=O)CC6)CC5)C4)cn3)CC2)cc1Cl (stereo partly shown)	< 40%
N#Cc1ccc(O[C@H]2CC[C@H](NC(=O)c3cnc(N4CCC(CN5CCC6(CC5)CN(c5cc7c(cc5F)C(=O)N(C5CCC(=O)NC5=O)C7=O)C6)CC4)nn3)CC2)cc1Cl (stereo partly shown)	> 80%
N#Cc1ccc(O[C@H]2CC[C@H](NC(=O)c3nnc(N4CCC(CN5CCC6(CC5)CN(c5ccc7c(c5)C(=O)N(C5CCC(=O)NC5=O)C7=O)C6)CC4)s3)CC2)cc1Cl (stereo partly shown)	> 80%
N#Cc1ccc(O[C@H]2CC[C@H](NC(=O)c3cnn([C@H]4CC[C@H](CN5CCC6(CC5)CN(c5cc7c(cc5F)C(=O)N(C5CCC(=O)NC5=O)C7=O)C6)CC4)c3)CC2)cc1Cl (stereo partly shown)	60 to 80%
